# conditions: buffer; pH 7.4; 200.0 µM
solubility kinetic reference
# value in µg/mL; strip the unit string

Examples with answers:
CCOc1ccc(C(=O)NCc2ccc3c(c2)OCO3)cc1OCC ... 1.2
Cc1cccc(C)c1OP(N)(=O)Oc1c(C)cccc1C ... 10.8
CCn1c(SCc2ccccc2)nc2cc(S(N)(=O)=O)ccc21 ... 2.2
CC(/C=C1\SC(=Nc2cccnc2)NC1=O)=C\c1ccccc1 ... 1.7
COc1ccc(C(=O)CSc2ncnc3nc[nH]c23)cc1 ... 8
COc1cccc(C(=S)N2CCOCC2)c1OS(=O)(=O)c1ccc(Cl)cc1 ... 3.3
Cc1cn(CCC(=O)Nc2ccccc2N2CCOCC2)c2ccccc12 ... 27.5
O=C(c1ccccc1Cl)N1CCn2c1nc1ccccc12 ... 29.5
CC(=O)c1sc2nc(-c3ccco3)ccc2c1N ... 6
COc1cc(C(=O)NCc2cccs2)ccc1OCc1c(C)noc1C ... 5.9

Reported solubility kinetic for CCOC(=O)C1CCN(c2nc(C)cc(C)c2C#N)CC1 : what is it?
36.9

Reported solubility kinetic for O=C(CCC1CCN(Cc2ccc(Cl)cc2)CC1)NC1CC1 : what is it?
41.3

###

# conditions: buffer; pH 7.4; 200.0 µM
Is solubility kinetic at least 10 µg/mL? Then Criterion met. If not, Criterion not met.

Cn1cnc(S(=O)(=O)Nc2ccc(OC(F)(F)F)cc2)c1 ... Criterion met
O=C(/C=C/c1cccs1)c1ccc([N+](=O)[O-])cc1 ... Criterion not met
CCc1cc(=O)oc2cc(OCC(=O)N3CCC(C(N)=O)CC3)ccc12 ... Criterion met
CCOc1ncccc1C(=O)Nc1nc(SC)ns1 ... Criterion not met
COc1ccc(C)cc1S(=O)(=O)n1cnc(C)c1 ... Criterion met

Exam item: decide whether the reported solubility kinetic for COc1ccc(N)cc1S(=O)(=O)Nc1ccccc1Cl is at least 10 µg/mL.
Criterion met

Exam item: decide whether the reported solubility kinetic for NC(=S)N(c1ccccc1)c1ccccc1 is at least 10 µg/mL.
Criterion met

Exam item: decide whether the reported solubility kinetic for CN(C)S(=O)(=O)c1cccc(NC(=O)COC(=O)c2ccc3ccccc3n2)c1 is at least 10 µg/mL.
Criterion met

###

# conditions: buffer; pH 7.4; 200.0 µM
solubility kinetic reference
# value in µg/mL; strip the unit string

Examples with answers:
C=CCNc1nc(N)c([N+](=O)[O-])c(NC2CCCCC2)n1 ... 0.7
COc1ccc(CN2CCc3ccccc3C2)c(OC)c1 ... 29.6
Fc1ccc(-c2csc(NC(=S)Nc3ccccc3)n2)cc1 ... 1.6

Consider now this further compound.
Reported solubility kinetic for Cc1nc(NC(=O)CCc2ccccc2)sc1C : what is it?
18.7

###

log10 of solubility kinetic reference
# conditions: buffer; pH 7.4; 200.0 µM
The common logarithm of solubility kinetic in µg/mL is what is listed.

Reported log10 of solubility kinetic for N#C/C(=C\c1ccc(O)cc1)C(=O)NCc1ccccc1 : what is it?
0.38

Reported log10 of solubility kinetic for CC(=O)C(Sc1ncnc2sc3c(c12)CCCC3)C(C)=O : what is it?
1.59

Reported log10 of solubility kinetic for COC(=O)CN1C(=O)Nc2ccc(Cl)cc2C1c1ccccc1 (stereo unspecified) : what is it?
0.32
